Tested on: DMS 273 small cell lung
Test Summary: NCI tumour cell line growth inhibition, 48 h
Can you tell me TGI for the items I'm about to list?

Req: Requested field: TGI. Item: `CCOC(=O)/C(O)=C(/C(=O)OC)c1ccc(Cl)cc1`
Resp: > 100 µM

Req: Next compound up: `O=C(NC(=Nc1ccccc1)SCCSC(=Nc1ccccc1)NC(=O)c1cccs1)c1cccs1`
Resp: > 100 µM

Req: Next compound up: `CNC(=O)OCc1c2ccncc2c(C)c2c1[nH]c1ccc(OC)cc12`
Resp: > 100 µM

Req: Next compound up: `O=C(N/C(=C\c1ccc(/C=C(\NC(=O)c2ccccc2)c2nc3ccccc3[nH]2)cc1)c1nc2ccccc2[nH]1)c1ccccc1`
Resp: > 100 µM

Req: Next compound up: CCOc1ccc(NC(=O)C(=O)C(C(=O)c2ccc3ccccc3c2)C2OC(=O)c3ccccc32)cc1 (stereo not given)
Resp: 47 µM

Req: Next compound up: `O=C(O)c1nc(-c2ccc(Cl)c(Cl)c2)nc2ccc(Cl)cc12`
Resp: > 100 µM

Req: Next compound up: O=C(O)C1CCCCN1c1ccccc1[N+](=O)[O-] (stereo not given)
Resp: > 100 µM

Req: Next compound up: `Cc1ccc2c(=O)c3ccccc3sc2c1`
Resp: > 100 µM

Req: Next compound up: `CCN(CC)c1oc(N(CC)CC)c(C(=O)Nc2ccccn2)c(=O)c1C(C)=O`
Resp: > 100 µM

Req: Next compound up: CC(=O)O[C@H]1CCC2[C@@H]3CCC4c5nonc5CC[C@]4(C)C3CC[C@@]21C (stereo not given in full)
Resp: > 10 µM

----------
Test system: CAKI-1 renal
Test Summary: NCI tumour cell line growth inhibition, 48 h
Measured Metric: TGI

Req: Requested field: TGI. Item: `COc1ccc(CC(=O)c2ccc(O)cc2O)cc1`
Resp: > 100 µM

Req: Next molecule up: `CCOC(=O)c1nc2ccc(C(F)(F)F)cc2nc1Oc1ccc(C(=O)OC)cc1`
Resp: > 100 µM

Req: Next molecule up: `CCOC(=O)c1c(NC(=S)Nc2ccccc2)sc2c1CCOC2`
Resp: > 100 µM

Req: Next molecule up: `CC(=O)Oc1ccc2c3c1O[C@H]1[C@H](O)CC[C@@]4(O)[C@@H](C2)N(C)CC[C@]314`
Resp: > 100 µM

Req: Next molecule up: `CN1CCc2[nH]nc(-c3n[nH]c4c3CN(C)CC4)c2C1`
Resp: > 100 µM

Req: Next molecule up: `NCCN.O=C([O-])CN1CCOCC1.[OH-].[Pt+4]`
Resp: > 100 µM

Req: Next molecule up: `C#CC1(O)CCCCCCCCC2(CCCCCCCC1)OCCO2`
Resp: 24.7 µM

Req: Next molecule up: `CCSc1nc(SCC)c2c(-c3ccc(OC)c(OC)c3)c(C#N)c(SCC)nc2n1`
Resp: 25.3 µM

Req: Next molecule up: `Cc1ccc2c(=O)c3ccccc3sc2c1`
Resp: > 100 µM

Req: Next molecule up: `O=S(=O)(c1cccc2c(I)cccc12)N1CCCNCC1`
Resp: 37.8 µM

Req: Next molecule up: `Cc1cnc(CNC(=O)c2c(=O)c3ccc(N4CCCN(C)CC4)nc3n3c2sc2ccccc23)cn1`
Resp: 18 µM

Req: Next molecule up: COc1ccc(C2=C(c3ccc(OC)c(OC)c3)C(=O)N3CCCC3C2)cc1 (stereo not drawn)
Resp: > 100 µM

Req: Next molecule up: `COc1ccc(-c2oc3c(OC)c(OC)cc(O)c3c(=O)c2OC)cc1`
Resp: > 100 µM

Req: Next molecule up: `CC1=C(C)SC(=C2Sc3nc(O)[nH]c(=O)c3S2)S1`
Resp: > 100 µM

Req: Next molecule up: OC1CSc2nc3ccccc3n2C1 (stereo not drawn)
Resp: > 100 µM

Req: Next molecule up: CSc1nc2c(c(=O)[nH]1)N=C(c1ccccc1)CC(c1ccccc1)N2 (stereo not drawn)
Resp: > 100 µM

Req: Next molecule up: `O=C(c1cc2c(c3ccccc13)NC1(CCCCC1)N=C2C(F)(F)F)C(F)(F)F`
Resp: 13.1 µM

Req: Next molecule up: `CC(=O)N(C(C)=O)c1cc2c3c(c1)CCCN3CCC2`
Resp: > 10 µM

Req: Next molecule up: `c1ccc(CSC2(SCc3ccccc3)CCCCC2)cc1`
Resp: > 10 µM

Req: Next molecule up: `O=C1CC(=O)NC(=NNS(=O)(=O)c2ccc(Cl)cc2)N1`
Resp: > 100 µM

Req: Next molecule up: `COc1ccc(Cl)c(Nc2nc3ccccc3nc2NS(=O)(=O)c2cccc(NC(=O)C(C)(C)N)c2)c1`
Resp: > 10 µM

Req: Next molecule up: `Cc1cccc(N/C(Sc2ccccc2)=C(/C(Cl)=C(Cl)Cl)[N+](=O)[O-])c1`
Resp: 37.3 µM

Req: Next molecule up: CC1(C)N=C(C2CCCN2C(=O)OCc2ccccc2)OC1=O (stereo not drawn)
Resp: > 100 µM

The reported measurements were obtained from PubChem BioAssay (NCI).
